species on record: Mus musculus; assay: Stimulation of prostanoid receptor-mediated cAMP accumulation in Charles River CD-1 mouse ovary at 10 ug/ml after 30 mins relative to control; type: tissue-based; settings: Female gonad
quantity kind: fold change (FC)

Examples with answers:
[[record]]
compound = "CCCCCCCCC(C)N(CCCCCCC(=O)O)C(N)=O (stereo unspecified)"
quantity_kind = "fold change (FC)"
measurement = 9

[[record]]
compound = "CCCCCC(O)/C=C/CN(CCCCCCC(=O)O)C(N)=O (stereo unspecified)"
quantity_kind = "fold change (FC)"
measurement = 14

[[record]]
compound = "CCCCCC(C)(O)CCCN(CCCCCCC(=O)O)C(N)=O (stereo unspecified)"
quantity_kind = "fold change (FC)"
measurement = 3

[[record]]
compound = "CCCCCC(O)CCCN(CCCCCCC(=O)O)C(N)=S (stereo unspecified)"
quantity_kind = "fold change (FC)"
measurement = 4

[[record]]
compound = "CCCCCC(O)CCCN(CCCCCCC(=O)O)C(C)=O (stereo unspecified)"
quantity_kind = "fold change (FC)"
measurement = 10

[[record]]
compound = "CCCCCCCCCN(CCCCCCC(=O)O)C(N)=O"
quantity_kind = "fold change (FC)"
measurement = 15


[P] CCCCCC(O)CCCC(CCCCCCC(=O)O)C(C)=O (stereo unspecified)
[Q] CCCCCC(O)CCCN(C#N)CCCCCCC(=O)O (stereo unspecified)
[R] CCCCCC(O)CCCN(CCCCCCC(=O)[O-])C(N)=O.[Na+] (stereo unspecified)
[S] C=CC(=O)N(CCCCCCCCC)CCCCCCC(=O)O
**Query** Falling order of fold change (FC), please. Please write the labels in the order that was asked for.
**Result** R, P, Q, S
(R: 23, P: 11, Q: 4, S: 2)

====

species: Mus musculus; assay: Stimulation of prostanoid receptor-mediated cAMP accumulation in Charles River CD-1 mouse ovary at 100 ug/ml after 30 mins relative to control; format: tissue-based; settings: Female gonad
quantity kind: fold change (FC)

[1] CCCCCC(O)CCCN(CCCCCCC(=O)O)C(N)=S (configuration not stated)
[2] C=CC(=O)N(CCCCCCCCC)CCCCCCC(=O)O
**Query** Pick one: 1 or 2 . Which one has the lower reported fold change (FC)? Respond with the label that goes with your answer.
**Result** 2
(2: 11, 1: 26)

[1] CCCCCC(O)CCCN(C#N)CCCCCCC(=O)O (configuration not stated)
[2] CCCCCCCCC(c1ccccc1)N(CCCCCCC(=O)O)C(C)=O (configuration not stated)
**Query** Pick one: 1 or 2 . Which one has the lower reported fold change (FC)? Respond with the label that goes with your answer.
**Result** 2

[I] CCCCCC(O)/C=C/CN(CCCCCCC(=O)O)C(N)=O (configuration not stated)
[II] CCCCCCCCC(C)N(CCCCCCC(=O)O)C(N)=O (configuration not stated)
**Query** Pick one: I or II . Which one has the lower reported fold change (FC)? Respond with the label that goes with your answer.
**Result** II

====

species: Mus musculus; experiment: Stimulation of prostanoid receptor-mediated cAMP accumulation in Charles River CD-1 mouse ovary at 25 ug/ml after 30 mins relative to control; type: tissue-based; conditions: Female gonad
quantity kind: fold change (FC)

Examples with answers:
[[record]]
compound = "CCCCCC(O)CCCN(CCCCCCC(=O)O)C(N)=S (stereo not drawn)"
measurement = 16

[[record]]
compound = "CCCCCCCCC(C)N(CCCCCCC(=O)O)C(C)=O (stereo not drawn)"
measurement = 3

[[record]]
compound = "C=CC(=O)N(CCCCCCCCC)CCCCCCC(=O)O"
measurement = 7

[[record]]
compound = "CCCCC[C@H](O)CC[C@H]1CCC(=O)[C@@H]1CCCCCCC(=O)O"
measurement = 26

[[record]]
compound = "CCCCCC(O)/C=C/CN(CCCCCCC(=O)O)C(N)=O (stereo not drawn)"
measurement = 19


[P] CCCCCCCCC(C)N(CCCCCCC(=O)O)C(N)=O (stereo not drawn)
[Q] CCCCCCCCC(c1ccccc1)N(CCCCCCC(=O)O)C(C)=O (stereo not drawn)
[R] CCCCCC(C)(O)CCCN(CCCCCCC(=O)O)C(N)=O (stereo not drawn)
**Query** Falling order of fold change (FC), please. Please write the labels in the order that was asked for.
**Result** P, R, Q
(P: 16, R: 8, Q: 1)

====

organism: Mus musculus; experiment: Stimulation of prostanoid receptor-mediated cAMP accumulation in Charles River CD-1 mouse ovary at 1 ug/ml after 30 mins relative to control; assay type: tissue-based; conditions: Female gonad
quantity kind: fold change (FC)

Examples with answers:
[[record]]
molecule = "CCCCCC(O)CCCC(CCCCCCC(=O)O)C(C)=O (centres undefined)"
measurement = 2

[[record]]
molecule = "CCCCC[C@H](O)/C=C/[C@H]1[C@H](O)CC(=O)[C@@H]1CCCCCCC(=O)O"
measurement = 54


[A] CCCCC[C@H](O)CC[C@H]1CCC(=O)[C@@H]1CCCCCCC(=O)O
[B] CCCCCC(O)CCCN(CCCCCCC(=O)[O-])C(N)=O.[Na+] (centres undefined)
**Query** Pick one: A or B . Which one has the lower reported fold change (FC)? Respond with the label that goes with your answer.
**Result** B

====

species: Mus musculus; experiment: Stimulation of prostanoid receptor-mediated cAMP accumulation in Charles River CD-1 mouse ovary at 100 ug/ml after 30 mins relative to control; format: tissue-based; details: Female gonad
quantity kind: fold change (FC)

Examples with answers:
[[record]]
compound = "CCCCCC(O)CCCN(CCCCCCC(=O)[O-])C(N)=O.[Na+] (stereo unspecified)"
measurement = 40

[[record]]
compound = "CCCCCC(O)CCCN(CCCCCCC(=O)O)C(C)=O (stereo unspecified)"
measurement = 17

[[record]]
compound = "CCCCCC(C)(O)CCCN(CCCCCCC(=O)O)C(N)=O (stereo unspecified)"
measurement = 22

[[record]]
compound = "CCCCCC(O)CCCC(CCCCCCC(=O)O)C(C)=O (stereo unspecified)"
measurement = 23


[I] CCCCCCCCCN(CCCCCCC(=O)O)C(N)=O
[II] CCCCCCCCC(C)N(CCCCCCC(=O)O)C(C)=O (stereo unspecified)
**Query** Two entries are listed, I and II . Which one carries the higher fold change (FC)? Respond with the label that goes with your answer.
**Result** I
(I: 25, II: 4)

====

species: Mus musculus; assay: Stimulation of prostanoid receptor-mediated cAMP accumulation in Charles River CD-1 mouse ovary at 25 ug/ml after 30 mins relative to control; format: tissue-based; details: Female gonad
quantity kind: fold change (FC)

[[record]]
molecule = "CCCCCCCCCN(CCCCCCC(=O)O)C(N)=O"
measurement = 16

[[record]]
molecule = "CCCCCC(O)CCCN(C#N)CCCCCCC(=O)O (stereo not given)"
measurement = 18

[[record]]
molecule = "CCCCCC(O)CCCN(CCCCCCC(=O)O)C(C)=O (stereo not given)"
measurement = 17


[A] CCCCCC(O)CCCC(CCCCCCC(=O)O)C(C)=O (stereo not given)
[B] CCCCCC(O)CCCN(CCCCCCC(=O)[O-])C(N)=O.[Na+] (stereo not given)
**Query** Pick one: A or B . Which one has the lower reported fold change (FC)? Respond with the label that goes with your answer.
**Result** A
